Recorded peptide exchange yield by entry
assay target: HLA-A*24 (human)
experiment: UV-ligand exchange ELISA

binder	peptide exchange yield
VFKASKITF [peptide SEQ ID No 191]	50 to 75%
TYTQDFNKF [peptide SEQ ID No 208]	50 to 75%
YFIDSTNLKTHF [peptide SEQ ID No 269]	50 to 75%

Q: Identify peptide exchange yield associated with the binder TYLRDQHFL [peptide SEQ ID No 187]
Ans: > 75%

Q: Report measured peptide exchange yield; entry is RYAEEVGIF [peptide SEQ ID No 199]
Ans: 50 to 75%

Q: Respond only with peptide exchange yield recorded for VYVGGGQIIHL [peptide SEQ ID No 174]
Ans: 50 to 75%

Q: Consider the binder TYELRYFQI [peptide SEQ ID No 204] and give its recorded peptide exchange yield.
Ans: > 75%

Q: Determine from records and report peptide exchange yield for KYIPYKYVI [peptide SEQ ID No 223]
Ans: 50 to 75%
